- target.under.test: Kynurenine/alpha-aminoadipate aminotransferase, mitochondrial (Homo sapiens, UniProt Q8N5Z0)
- Sequence (Q8N5Z0 whole entry): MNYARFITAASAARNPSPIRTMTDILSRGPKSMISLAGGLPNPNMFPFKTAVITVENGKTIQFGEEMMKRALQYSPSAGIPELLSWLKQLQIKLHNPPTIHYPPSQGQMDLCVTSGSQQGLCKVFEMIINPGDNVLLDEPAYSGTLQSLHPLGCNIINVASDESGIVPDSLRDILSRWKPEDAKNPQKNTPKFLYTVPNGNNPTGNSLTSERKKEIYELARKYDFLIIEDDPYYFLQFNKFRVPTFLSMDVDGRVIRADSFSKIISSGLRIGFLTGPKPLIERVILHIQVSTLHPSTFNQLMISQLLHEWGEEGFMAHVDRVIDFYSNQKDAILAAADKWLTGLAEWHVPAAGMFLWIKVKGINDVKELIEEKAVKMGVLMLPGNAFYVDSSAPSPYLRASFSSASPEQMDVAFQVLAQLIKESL
- assay.summary: Reversible inhibition of recombinant human KAT2 assessed as reduction in kynurenic acid formation using L-kynurenine as substrate by fluorescence assay
test.readout: IC50 (µM)

[1] O=S(=O)(Nc1nnc(C2(c3ccccc3)CC2)s1)c1cc(F)cc(F)c1
[2] Cc1ccc(NC(=O)N2CCCC3(CCC(=O)N(CCC(C)C)C3)C2)cc1Cl (racemic)
[3] Cc1cc(C)cc(NC(=O)N2CCCC3(CCC(=O)N(C4CC4)C3)C2)c1 (stereo in doubt; 9 E1)
[4] CCc1cccc(NC(=O)N2CCCC3(CCC(=O)N(CCC(C)C)C3)C2)c1 (racemic)
[5] O=C1CCC2(CCCN(C(=O)Nc3ccc(F)c(Cl)c3)C2)CN1CC1CC1 (stereo in doubt; 10 E2)
Give the order of the entries above, sorted from least to greatest IC50. List the labels according to the requested ordering.
2, 3, 4, 1, 5

* * *

- target.under.test: Kynurenine/alpha-aminoadipate aminotransferase, mitochondrial (Homo sapiens, UniProt Q8N5Z0)
- assay.summary: Reversible inhibition of recombinant human KAT2 assessed as reduction in kynurenic acid formation using L-kynurenine as substrate by fluorescence assay
test.readout: IC50 (µM)

CC(C)C(Cc1nnc(NS(=O)(=O)c2cc(F)cc(F)c2)s1)c1cccc(F)c1 (configuration not stated)    1.6
Cc1cc(C)cc(NC(=O)N2CCCC3(CCC(=O)N(C4CC4)C3)C2)c1 (stereo in doubt; 9 E2)    74.9

[P] CCc1cccc(NC(=O)N2CCCC3(CCC(=O)N(CCC(C)C)C3)C2)c1 (stereo in doubt; 7 E2)
[Q] O=C1CCC2(CCCN(C(=O)Nc3ccc(F)c(Cl)c3)C2)CN1CC1CC1 (stereo in doubt; 10 E1)
[R] COc1ccc(NC(=O)N2CCCC3(CCC(=O)N(C4CC4)C3)C2)cc1 (stereo in doubt; 11 E2)
[S] CCc1cccc(NC(=O)N2CCCC3(CCC(=O)N(CCC(C)C)C3)C2)c1 (stereo in doubt; 7 E1)
Ascending by IC50, please. List the labels according to the requested ordering.
Q, S, R, P
(Q: 2.4 µM, S: 4.4 µM, R: 15.5 µM, P: 97 µM)
